Cited source for all entries: paper PMC4657098

molecular target: α2β3γ2 GABAA/BzR (Homo sapiens, UniProt P18507+P47869); experiment: Competition binding to HEK cell membranes, α2β3γ2; design: expressed in transfected cells; conditions: read-out: Ki α2
metric: Ki

{"compound": "Cc1nnc2n1-c1ccc(Br)cc1C(c1ccccc1)=NC2", "data-value": "0.686 nM"}
{"compound": "C#Cc1ccc2c(c1)C(c1cccs1)=NCC(=O)N2", "data-value": "18.9 nM"}
{"compound": "C#Cc1ccc2c(c1)C(c1ccccc1F)=NCc1c(C(=O)NC)ncn1-2", "data-value": "8.13 nM"}
{"compound": "S=C=Nc1ccc2[nH]c3cnc(N=C=S)cc3c2c1", "data-value": "423 nM"}
{"compound": "CCOC(=O)c1ncn2c1C1CCN1C(=O)c1cc(OC)ccc1-2 (centres unmarked)", "data-value": "56.3 nM"}
{"compound": "CCCCc1cc2c(cn1)[nH]c1ccc(F)cc12", "data-value": "120 nM"}
{"compound": "Cc1nnc2n1-c1ccc(Br)cc1C(c1ccccc1F)=NC2 [JYI-57]", "data-value": "0.076 nM"}
{"compound": "c1ccc2c(c1)[nH]c1c2ncc2[nH]c3ccccc3c21", "data-value": "1.2 nM"}
{"compound": "CC[C@@H](C)OC(=O)c1cc2c(cn1)[nH]c1ccccc12 [CM-A49 (R)]", "data-value": "32.5 nM"}
{"compound": "COc1ccc2c(c1)C(=O)N1CCCC1c1c(C(=O)OC(C)C)ncn1-2 (centres unmarked) [CM-E09b]", "data-value": "22 nM"}
{"compound": "O=C(OCC(F)(F)F)c1ncn2c1[C@@H]1CCCN1C(=O)c1ccccc1-2", "data-value": "25 nM"}
{"compound": "C=Cc1ccc2c(c1)C(=O)N1CCC[C@H]1c1c(C(=O)OCC(F)(F)F)ncn1-2", "data-value": "39 nM"}
{"compound": "CN1Cc2c(C(=O)OC(C)(C)C)ncn2-c2ccc(C#C[Si](C)(C)C)cc2C1=O", "data-value": "143 nM"}
{"compound": "O=C(O)c1ncn2c1CN=C(c1ccccc1)c1cc(Br)ccc1-2", "data-value": "12 nM"}
{"compound": "COCc1ncn2c1CN(C)C(=O)c1cc(Cl)ccc1-2", "data-value": "180 nM"}
{"compound": "O=c1c2c[nH]c3ccccc3c-2nn1-c1ccccc1", "data-value": "0.08 nM"}
{"compound": "Cc1nnc2n1-c1ccc(Br)cc1C(c1ccccc1F)=NC2 [JYI-64]", "data-value": "1.11 nM"}
{"compound": "C#Cc1ccc2c(c1)C(c1ccccc1F)=NCc1c(C(=O)OCC(F)(F)F)ncn1-2 [JYI-59 (C22H13N3O2F4)]", "data-value": "2.6 nM"}
{"compound": "O=C(OCC(F)(F)F)c1ncn2c1CN=C(c1ccccc1F)c1cc(-c3ccco3)ccc1-2", "data-value": "172 nM"}
{"compound": "COc1ccc2c(c1)C(=O)N1CCCC1c1c(C(=O)OCC(C)C)ncn1-2 (centres unmarked)", "data-value": "308 nM"}
{"compound": "C#Cc1ccc2c(c1)C(c1ccccc1F)=NCc1nnc(C)n1-2", "data-value": "2.1 nM"}
{"compound": "C#Cc1ccc2c(c1)C(c1ccccc1)=NCc1c(C(=O)OCC(F)(F)F)ncn1-2", "data-value": "27.1 nM"}
{"compound": "C#Cc1ccc2c(c1)C(c1ccccc1F)=NC(C)C(=O)N2C (centres unmarked)", "data-value": "4.6 nM"}
{"compound": "c1ccc2c(c1)[nH]c1cnc3c4cccnc4[nH]c3c12 [LJD-III-15E]", "data-value": "14 nM"}
{"compound": "O=C(O)c1ncn2c1CN=C(c1ccccc1F)c1cc(Br)ccc1-2", "data-value": "2.28 nM"}
{"compound": "O=C(OCC(Cl)(Cl)Cl)c1ncn2c1CN=C(c1ccccc1)c1cc(Br)ccc1-2", "data-value": "85 nM"}
{"compound": "CC[C@H](C)OC(=O)c1ncn2c1[C@@H]1CCCN1C(=O)c1cc(I)ccc1-2 [CM-B31i (ss)]", "data-value": "184 nM"}
{"compound": "COc1ccc2c(c1)C(=O)N1CCC[C@H]1c1c(C(=O)OCC(F)(F)F)ncn1-2 [CM-E09a]", "data-value": "192 nM"}
{"compound": "CC(OC(=O)c1ncn2c1C1CCCN1C(=O)c1ccccc1-2)C(F)(F)F (centres unmarked)", "data-value": "13 nM"}
{"compound": "CCCC(=O)c1cc2c(cn1)[nH]c1ccccc12", "data-value": "16 nM"}
{"compound": "CC(C)(C)OC(=O)c1cc2c(cn1)[nH]c1ccc(-c3ccccc3)cc12", "data-value": "2.02 nM"}
{"compound": "CC(C)(C)CC(=O)c1cc2c(cn1)[nH]c1ccccc12", "data-value": "51.9 nM"}
{"compound": "CC[C@H](C)OC(=O)c1ncn2c1[C@@H]1CCCN1C(=O)c1cc(F)ccc1-2 [CM-B44 (ss)]", "data-value": "43 nM"}
{"compound": "CCC(C)OC(=O)c1cc2c(cn1)[nH]c1ccccc12 (centres unmarked)", "data-value": "60 nM"}
{"compound": "C#Cc1ccc2c(c1)C(c1ccccc1F)=NCC(=O)N2", "data-value": "1.64 nM"}
{"compound": "O=C(OCC(F)(F)F)c1cc2c(cn1)[nH]c1ccccc12", "data-value": "24.5 nM"}
{"compound": "O=C(OCC(F)(F)F)c1ncn2c1C1CCCN1C(=O)c1cc(-c3ccco3)ccc1-2 (centres unmarked)", "data-value": "63.7 nM"}
{"compound": "C#Cc1ccc2c(c1)C(c1ccccc1)=NCC(NC)=N2", "data-value": "5000 nM"}
